# System Tested: HLA-C*03:03
# Method Description: IEDB peptide-MHC binding, purified MHC/direct/fluorescence; filed as Kd, often an IC50 or EC50 that approximates it; bounds were set here for any values at or beyond the usual limits of such assays
# Condition Summary: source organism: Variola virus
Measured Attribute: Kd

Any idea what its Kd is? The sequence is `KVDDTFYYV` ≥ 20 µM

----------
# System Tested: HLA-B*15:01
# Method Description: IEDB peptide-MHC binding, purified MHC/direct/fluorescence; filed as Kd, often an IC50 or EC50 that approximates it; bounds were set here for any values at or beyond the usual limits of such assays
# Condition Summary: source organism: Cowpox virus
pKd: −log10 of the molar value.
Measured Attribute: pKd

Can you look up the measured pKd of `YKDANISMY` for me? ≤ 4.70

----------
# System Tested: HLA-A*29:02
# Method Description: IEDB peptide-MHC binding, purified MHC/competitive/radioactivity; filed as Kd, often an IC50 or EC50 that approximates it; bounds were set here for any values at or beyond the usual limits of such assays
# Condition Summary: source organism: Lassa virus Josiah
Measured Attribute: pKd
Would you please state pKd, meaning minus log10 of the concentration in mol/L, as a bare number?

pKd of `YLISIFLHL` on HLA-A*29:02? 7.00

----------
# System Tested: HLA-B*58:01
# Method Description: IEDB peptide-MHC binding, purified MHC/direct/fluorescence; filed as Kd, often an IC50 or EC50 that approximates it; bounds were set here for any values at or beyond the usual limits of such assays
# Condition Summary: source organism: Ebola virus - Gabon (1994-1997)
pKd: −log10 of the molar value.
Measured Attribute: pKd

Please provide the recorded pKd for `AKATGRYNL` , tested on HLA-B*58:01. ≤ 4.70

----------
# System Tested: HLA-A*68:01
# Method Description: IEDB peptide-MHC binding, purified MHC/competitive/radioactivity; filed as Kd, often an IC50 or EC50 that approximates it; bounds were set here for any values at or beyond the usual limits of such assays
# Condition Summary: source organism: Lassa virus Josiah
Measured Attribute: Kd (nM)
Note: unit nM is implicit; provide only the numeric part.

// lookup Kd for `ENAVWDQYK` 42.9

----------
# System Tested: HLA-B*40:01
# Method Description: IEDB peptide-MHC binding, purified MHC/direct/fluorescence; filed as Kd, often an IC50 or EC50 that approximates it; bounds were set here for any values at or beyond the usual limits of such assays
# Condition Summary: source organism: Escherichia coli O157:H7
pKd: −log10 of the molar value.
Measured Attribute: pKd

// worked examples, pKd included
AHGWSTFYL ... ≤ 4.70
LPEFERRTL ... ≤ 4.70

Attention now turns to another entry.
Dear colleague, I am looking for the recorded pKd of the following sequence: `PLKVKDIPF` ≤ 4.70

----------
# System Tested: HLA-A*01:01
# Method Description: IEDB peptide-MHC binding, purified MHC/direct/fluorescence; filed as Kd, often an IC50 or EC50 that approximates it; bounds were set here for any values at or beyond the usual limits of such assays
# Condition Summary: source organism: Reston ebolavirus
Measured Attribute: Kd (nM)
Numbers only here, please. The scale is nM.

Consider the sequence shown here: `LSDAARLFL` What is its recorded Kd? 303

----------
# System Tested: HLA-A*11:01
# Method Description: IEDB peptide-MHC binding, purified MHC/direct/fluorescence; filed as Kd, often an IC50 or EC50 that approximates it; bounds were set here for any values at or beyond the usual limits of such assays
# Condition Summary: source organism: Mycobacterium tuberculosis
pKd: −log10 of the molar value.
Measured Attribute: pKd

Give pKd (HLA-A*11:01) of the following sequence: `IQAVFGFSL` ≤ 4.70

----------
# System Tested: HLA-C*07:02
# Method Description: IEDB peptide-MHC binding, purified MHC/direct/fluorescence; filed as Kd, often an IC50 or EC50 that approximates it; bounds were set here for any values at or beyond the usual limits of such assays
# Condition Summary: source organism: Bacillus anthracis str. A2012
Measured Attribute: Kd (nM)
State just the number; it will be interpreted in nM.

Any idea what Kd was measured for `WMYYPRSPV` ? 667

----------
# System Tested: HLA-A*02:01
# Method Description: IEDB peptide-MHC binding, purified MHC/direct/fluorescence; filed as Kd, often an IC50 or EC50 that approximates it; bounds were set here for any values at or beyond the usual limits of such assays
# Condition Summary: source organism: Ebola virus - Gabon (1994-1997)
Measured Attribute: Kd

Value lookup for Kd; key = `AKATGRYNL` ≥ 20 µM

----------
Below is a list of entries, each paired with its recorded pIC50 value.
# System Tested: HLA-A*03:01
# Method Description: IEDB peptide-MHC binding, purified MHC/competitive/fluorescence; bounds were set here for any values at or beyond the usual limits of such assays
# Condition Summary: source organism: Sudan ebolavirus
The value called pIC50 is obtained by taking minus log10 of the concentration in mol/L.

Past entries and their recorded results:
GLRKRSRRQ ... 4.33
RSRRQTNTK ... 5.64
ISDRATRKY ... 4.41

We now examine a further sequence.
What pIC50 appears in the records for this sequence with HLA-A*03:01? `GLSLLQLPR` 5.66

----------
# System Tested: HLA-A*30:02
# Method Description: IEDB peptide-MHC binding, purified MHC/competitive/radioactivity; filed as Kd, often an IC50 or EC50 that approximates it; bounds were set here for any values at or beyond the usual limits of such assays
# Condition Summary: source organism: Mammarenavirus whitewaterense
Measured Attribute: Kd (µM)
Numbers only here, please. The scale is µM.

Look up Kd: `ATTNAHCALL` 6.04

----------
# System Tested: HLA-A*02:16
# Method Description: IEDB peptide-MHC binding, purified MHC/competitive/fluorescence; filed as Kd, often an IC50 or EC50 that approximates it; bounds were set here for any values at or beyond the usual limits of such assays
# Condition Summary: source organism: Bacillus cereus G9241
Measured Attribute: Kd

Item under review: `DEEAINLFH` . Reported Kd? ≥ 20 µM

----------
# System Tested: HLA-A*02:11
# Method Description: IEDB peptide-MHC binding, purified MHC/direct/fluorescence; filed as Kd, often an IC50 or EC50 that approximates it; bounds were set here for any values at or beyond the usual limits of such assays
# Condition Summary: source organism: Orthohantavirus tulaense
pKd: −log10 of the molar value.
Measured Attribute: pKd

Give the measured pKd of `VVDALRNIY` . ≤ 4.70

----------
# System Tested: HLA-B*35:01
# Method Description: IEDB peptide-MHC binding, purified MHC/competitive/radioactivity; filed as Kd, often an IC50 or EC50 that approximates it; bounds were set here for any values at or beyond the usual limits of such assays
# Condition Summary: source organism: Mammarenavirus juninense
Measured Attribute: pKd
Quick note: pKd means taking -log10 of the concentration in moles per liter.

Any idea what pKd was measured for `MAVELFQTI` ? 7.21

----------
# System Tested: HLA-B*15:01
# Method Description: IEDB peptide-MHC binding, purified MHC/competitive/fluorescence; filed as Kd, often an IC50 or EC50 that approximates it; bounds were set here for any values at or beyond the usual limits of such assays
# Condition Summary: source organism: Shigella boydii CDC 3083-94
Measured Attribute: Kd

What does the data say about its Kd? Entry: `MAMTGLPQA` ≥ 20 µM

----------
# System Tested: HLA-B*15:01
# Method Description: IEDB peptide-MHC binding, purified MHC/direct/fluorescence; filed as Kd, often an IC50 or EC50 that approximates it; bounds were set here for any values at or beyond the usual limits of such assays
# Condition Summary: source organism: Ebola virus - Gabon (1994-1997)
pKd: −log10 of the molar value.
Measured Attribute: pKd

Given `AKATGRYNL` , state its recorded pKd. ≤ 4.70

----------
# System Tested: HLA-A*03:01
# Method Description: IEDB peptide-MHC binding, purified MHC/competitive/radioactivity; filed as Kd, often an IC50 or EC50 that approximates it; bounds were set here for any values at or beyond the usual limits of such assays
# Condition Summary: source organism: SARS coronavirus Tor2
pKd: −log10 of the molar value.
Binary call on pKd: yes from 7 upward, no beneath that.

Consider the worked cases shown below.
RQLFKPLTKK ... yes
CVFAYVGCY ... no
STRHPSKLR ... no
SSIVRQLFK ... yes
MSAPPAEYK ... yes
DVFHLYLQY ... no
STCMMCYKR ... no
GLALYYPSAR ... no
QSQMLLIVLK ... no
PVVAAIITR ... no

Decide: pKd of `LQFTSLEIPR` >= 7? no

Check if pKd >= 7 (inclusive). Item: `TQYNRYLALY` no

Does pKd meet or surpass 7 for `SVSPKLFIR` ? no

// inclusive: pKd at least 7? input: `TTFDAEYCR` no

Please tell me: is the sequence `LSAGVEFLK` at or over 7 in terms of pKd? yes

Could you tell me if the measured pKd of `VLAAECTIFK` reaches 7 or more? yes

Does pKd meet or surpass 7 for `TVCTVCGMWK` ? yes

Check if pKd >= 7 (inclusive). Item: `AVMYMGTLSY` yes

API: above_or_equal(metric=pKd, cutoff=7) for item `AAYFVGYLK` yes

Values were extracted from the Immune Epitope Database (IEDB).
